test: Cytotoxicity against human vinblastine-resistant KBV1 cells after 72 hrs by MTT assay; assay type: functional, cell-based; conditions: KB-V1, 72 h
Please assign label 0 whenever IC50 is at or above 20 µM, and label 1 whenever it is below.

>>> label_value("COc1cccc2c1C(=O)c1c(O)c3c(c(O)c1C2=O)C[C@@](O)(/C(CO)=N/NC(=O)CC(=O)O[C@@H]1C[C@H](C)CC[C@H]1C(C)C)C[C@@H]3O[C@H]1C[C@H](N)[C@H](O)[C@H](C)O1.Cl")
"label 1"
>>> label_value("COc1cccc2c1C(=O)c1c(O)c3c(c(O)c1C2=O)C[C@@](O)(/C(CO)=N/NC(=O)CCCCCCCCCCC(=O)O[C@@H]1C[C@H](C)CC[C@H]1C(C)C)C[C@@H]3O[C@H]1C[C@H](N)[C@H](O)[C@H](C)O1.Cl")
"label 1"
>>> label_value("CC/C=C\\C/C=C\\C/C=C\\CCCCCCCC(=O)N/N=C(\\CO)[C@]1(O)Cc2c(O)c3c(c(O)c2[C@@H](O[C@H]2C[C@H](N)[C@H](O)[C@H](C)O2)C1)C(=O)c1c(OC)cccc1C3=O.Cl")
"label 1"
>>> label_value("COc1cccc2c1C(=O)c1c(O)c3c(c(O)c1C2=O)C[C@@](O)(/C(CO)=N/NC(=O)CCCCC(=O)O[C@@H]1C[C@H](C)CC[C@H]1C(C)C)C[C@@H]3O[C@H]1C[C@H](N)[C@H](O)[C@H](C)O1.Cl")
"label 0"
>>> label_value("COc1cccc2c1C(=O)c1c(O)c3c(c(O)c1C2=O)C[C@@](O)(/C(CO)=N/NC(=O)CCCCCCCCCCC(=O)O[C@H]1C[C@H]2CC[C@]1(C)C2(C)C)C[C@@H]3O[C@H]1C[C@H](N)[C@H](O)[C@H](C)O1.Cl")
"label 0"

---

assay: Cytotoxicity against human 518A2 cells after 48 hrs by MTT assay; format: functional, cell-based; conditions: 518A2, 48 h
Please assign 0.0 whenever IC50 is at or above 400 nM, and 1.0 whenever it is below.

>>> label_value("CC/C=C\\C/C=C\\C/C=C\\CCCCCCCC(=O)N/N=C(\\CO)[C@]1(O)Cc2c(O)c3c(c(O)c2[C@@H](O[C@H]2C[C@H](N)[C@H](O)[C@H](C)O2)C1)C(=O)c1c(OC)cccc1C3=O.Cl")
1.0
>>> label_value("CCCCC/C=C\\C/C=C\\CCCCCCCC(=O)N/N=C(\\CO)[C@]1(O)Cc2c(O)c3c(c(O)c2[C@@H](O[C@H]2C[C@H](N)[C@H](O)[C@H](C)O2)C1)C(=O)c1c(OC)cccc1C3=O.Cl")
0.0
>>> label_value("COc1cccc2c1C(=O)c1c(O)c3c(c(O)c1C2=O)C[C@@](O)(/C(CO)=N/NC(=O)CCCCCCCCCCC(=O)O[C@H]1C[C@H]2CC[C@]1(C)C2(C)C)C[C@@H]3O[C@H]1C[C@H](N)[C@H](O)[C@H](C)O1.Cl")
1.0
>>> label_value("CCCCCCCCCCCCCCCCC(=O)N/N=C(\\CO)[C@]1(O)Cc2c(O)c3c(c(O)c2[C@@H](O[C@H]2C[C@H](N)[C@H](O)[C@H](C)O2)C1)C(=O)c1c(OC)cccc1C3=O.Cl [DOXORUBICIN HEPTADECANOYL HYDRAZONE]")
1.0
>>> label_value("COc1cccc2c1C(=O)c1c(O)c3c(c(O)c1C2=O)C[C@@](O)(/C(CO)=N/NC(=O)CCCCC(=O)O[C@@H]1C[C@H](C)CC[C@H]1C(C)C)C[C@@H]3O[C@H]1C[C@H](N)[C@H](O)[C@H](C)O1.Cl")
0.0
>>> label_value("COc1cccc2c1C(=O)c1c(O)c3c(c(O)c1C2=O)C[C@@](O)(/C(CO)=N/NC(=O)CC(=O)O[C@@H]1C[C@H](C)CC[C@H]1C(C)C)C[C@@H]3O[C@H]1C[C@H](N)[C@H](O)[C@H](C)O1.Cl")
0.0
